Test system: CFPAC-1 (Pancreatic Carcinoma);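 further: after 72 h of two-drug dosing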
PROTOCOL DETAILS: Bliss excess, mean over the matrix (fraction); higher = more synergy
QUANTITY NAME: Bliss excess

MOLECULE	QUANTITY NAME	MEASURED NUMBER
COc1cccc2c1C(=O)c1c(O)c3c(c(O)c1C2=O)C[C@@](O)(C(=O)CO)C[C@@H]3O[C@H]1C[C@H](N)[C@H](O)[C@H](C)O1 [Doxorubicin] + Cc1cc2ncnn2cc1Nc1ncc2c(n1)n(C1CCOCC1)c(=O)n2C [AZD7648] (first compound max 1 µM, 7x7, partner max 10 µM)	Bliss excess	0.0253
Cc1c2c(nn1C)CSCc1cc(n(C)n1)CSc1cc(c3ccccc3c1)OCCCc1c(C(=O)O)n(C)c3c-2c(Cl)ccc13 [AZD5991] + C[C@@H](Nc1cc(F)cc(F)c1)c1cc(C(=O)N(C)C)cc2c(=O)cc(N3CCOCC3)oc12 [AZD8186] (first compound max 1 µM, 7x7, partner max 3 µM)	Bliss excess	-0.0077
CC(=O)c1c(C)c2cnc(Nc3ccc(N4CCNCC4)cn3)nc2n(C2CCCC2)c1=O [Palbociclib] + Cc1c2c(nn1C)CSCc1cc(n(C)n1)CSc1cc(c3ccccc3c1)OCCCc1c(C(=O)O)n(C)c3c-2c(Cl)ccc13 [AZD5991] (first compound max 10 µM, 7x7, partner max 1 µM)	Bliss excess	-0.0063
